# ASSAYED_TARGET: monoacylglycerol lipase (MGLL) (Mus musculus, UniProt O35678)
# Sequence (O35678 1-303): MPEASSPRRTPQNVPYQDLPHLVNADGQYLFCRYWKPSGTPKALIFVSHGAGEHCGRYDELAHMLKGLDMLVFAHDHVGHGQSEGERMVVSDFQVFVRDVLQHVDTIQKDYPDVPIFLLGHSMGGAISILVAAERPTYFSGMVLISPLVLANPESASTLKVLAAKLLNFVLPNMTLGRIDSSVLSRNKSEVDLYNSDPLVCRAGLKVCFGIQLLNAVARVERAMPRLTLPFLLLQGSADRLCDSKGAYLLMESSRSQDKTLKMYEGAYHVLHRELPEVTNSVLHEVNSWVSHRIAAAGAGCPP
# PROCEDURE_DETAILS: ITC with purified MGLL; supported by pull-down and LC-MS activity assay in hepatocyte lysate
QUANTITY_MEASURED: Kd (µM)
Give bare numbers, in µM.

Fill in the blank: the reported Kd of `CC(=O)O[C@@H]1CC[C@@]2(C)[C@@H](CC[C@]3(C)[C@@H]2C(=O)C=C2[C@@H]4[C@@H](C)[C@H](C)CC[C@]4(C)CC[C@]23C)[C@@]1(C)C(=O)O` is ____. 40.6
